Test: molar heat capacity at constant pressure
Conditions: 293.15 K; 100 kPa; Liquid; Small sample (50 mg) DSC
Below: a set of entries, each annotated with reported molar heat capacity at constant pressure.
# number only, unit J/K/mol dropped from output

Examples with answers:
CCn1cc[n+](C)c1.F[B-](F)(F)F [1-ethyl-3-methylimidazolium tetrafluoroborate] : 303.23
CCCCCCn1cc[n+](C)c1.F[B-](F)(F)F [1-hexyl-3-methylimidazolium tetrafluoroborate] : 427.34
CCCCCCCC[n+]1ccn(C)c1.F[B-](F)(F)F [1-methyl-3-octylimidazolium tetrafluoroborate] : 496.79

Next item in the queue.
Entry under review: CCCCn1cc[n+](C)c1.F[B-](F)(F)F [1-butyl-3-methylimidazolium tetrafluoroborate] . Reported molar heat capacity at constant pressure? 364.16

====

Each record here notes measured molar heat capacity at constant pressure.
Assay: molar heat capacity at constant pressure
Conditions: 293.15 K; 10000 kPa; Liquid; Small sample (50 mg) DSC
Please reply with the bare figure in J/K/mol and do not write the unit itself.

CCCCn1cc[n+](C)c1.F[B-](F)(F)F [1-butyl-3-methylimidazolium tetrafluoroborate] : 364.25
CCCCCCn1cc[n+](C)c1.F[B-](F)(F)F [1-hexyl-3-methylimidazolium tetrafluoroborate] : 427.54
CCCCCCCC[n+]1ccn(C)c1.F[B-](F)(F)F [1-methyl-3-octylimidazolium tetrafluoroborate] : 496.78

Dear colleague, I am looking for the recorded molar heat capacity at constant pressure of the following compound: CCn1cc[n+](C)c1.F[B-](F)(F)F [1-ethyl-3-methylimidazolium tetrafluoroborate] 303.38

====

Experiment: molar heat capacity at constant pressure
Details: 308.15 K; 10000 kPa; Liquid; Small sample (50 mg) DSC
parameter measured: molar heat capacity at constant pressure (J/K/mol)
Supply the numeric figure in J/K/mol, leaving out any unit text.

CCCCn1cc[n+](C)c1.F[B-](F)(F)F [1-butyl-3-methylimidazolium tetrafluoroborate] : 370.53

Record request: molar heat capacity at constant pressure value, item CCCCCCCC[n+]1ccn(C)c1.F[B-](F)(F)F [1-methyl-3-octylimidazolium tetrafluoroborate] 506.53

Record: CCCCCCn1cc[n+](C)c1.F[B-](F)(F)F [1-hexyl-3-methylimidazolium tetrafluoroborate] 435.2

Can you handle CCn1cc[n+](C)c1.F[B-](F)(F)F [1-ethyl-3-methylimidazolium tetrafluoroborate] next? 308.52

====

Assay: molar heat capacity at constant pressure
Conditions: 308.15 K; 8000 kPa; Liquid; Small sample (50 mg) DSC
Listing of recorded molar heat capacity at constant pressure by entry.
Quick reminder: number only, in J/K/mol, skip the unit.

Look over these answered cases.
CCn1cc[n+](C)c1.F[B-](F)(F)F [1-ethyl-3-methylimidazolium tetrafluoroborate] : 308.49
CCCCCCCC[n+]1ccn(C)c1.F[B-](F)(F)F [1-methyl-3-octylimidazolium tetrafluoroborate] : 506.53
CCCCn1cc[n+](C)c1.F[B-](F)(F)F [1-butyl-3-methylimidazolium tetrafluoroborate] : 370.52

Next item in the queue.
Look up molar heat capacity at constant pressure for this compound: CCCCCCn1cc[n+](C)c1.F[B-](F)(F)F [1-hexyl-3-methylimidazolium tetrafluoroborate] 435.17

====

Assay: molar heat capacity at constant pressure
Conditions: 288.15 K; 50000 kPa; Liquid; Small sample (50 mg) DSC
parameter measured: molar heat capacity at constant pressure (J/K/mol)
Use J/K/mol as the unit, but write only the number.

Would you kindly share the measured molar heat capacity at constant pressure for CCCCCCCC[n+]1ccn(C)c1.F[B-](F)(F)F [1-methyl-3-octylimidazolium tetrafluoroborate] ? 493.09

Consider next the compound CCn1cc[n+](C)c1.F[B-](F)(F)F [1-ethyl-3-methylimidazolium tetrafluoroborate] in the same way. 302.39

Also CCCCn1cc[n+](C)c1.F[B-](F)(F)F [1-butyl-3-methylimidazolium tetrafluoroborate] ? 362.75

Moving on to the next compound: CCCCCCn1cc[n+](C)c1.F[B-](F)(F)F [1-hexyl-3-methylimidazolium tetrafluoroborate] 426.05

Data origin: the NIST ThermoML archive (doi:10.1021/je9004992)
